- Assay Target: CYP3A (Homo sapiens, UniProt P08684+P20815+P24462+Q9HB55)
- Experimental Protocol: Inhibition of CYP3A in human liver microsomes using midazolam as substrate preincubated for 5 mins followed by NADPH addition and measured for 10 to 30 mins by LC-MS/MS analysis
- Type: ADME
- Experimental Parameters: probe midazolam
pIC50: −log10 of the molar value.
Assay Readout: pIC50

Given item Cc1cc(-c2ccc(C(F)(F)F)cn2)[nH]c1C(=O)N[C@@H](CN)c1ncc(CO)s1 , the value recorded as its pIC50 is < 4.00

====

- System: Human immunodeficiency virus 1
- Experimental Protocol: Antiviral activity against HIV1-ADA infected in human MOLT4 cells assessed as inhibition in cell to cell HIV1 transmission to human TZM-bl acceptor cells incubated for 24 hrs by luciferase based assay
- Type: functional, organism-based
- Experimental Parameters: Human immunodeficiency virus 1, 24 h
Assay Readout: IC50 (nM)
Use nM as the unit, but write only the number.

Given item COc1cnc(-n2cnc(C)n2)c2[nH]cc(C(=O)C(=O)N3CCN(C(=O)c4ccccc4)CC3)c12 , the value recorded as its IC50 is 200
